# assay: Membrane permeability (Papp) across Caco-2 cell monolayers
# Assay type: in vitro ADME
# reported conditions: human; Caco-2 monolayer; read-out: RATIO Papp^B-A/Papp^A-B
measurement name: efflux ratio
Please give the numeric answer without any surrounding text.

The examples below pair each entry with its known result.
>>> experimental_result("COc1ccccc1N1CCN(CCCn2ccc3c2CCCC3=O)CC1")
0.67
>>> experimental_result("O=C1CCCc2c1ccn2CCCN1CCN(c2cccc(Cl)c2)CC1")
0.75
>>> experimental_result("O=C1CCCc2c1ccn2CCCCN1CCN(c2cccc(C(F)(F)F)c2)CC1")
0.58
>>> experimental_result("CN1CCN(C2=Nc3cc(Cl)ccc3Nc3ccccc32)CC1 [Clozapine, clozapine, reference compound]")
0.65
>>> experimental_result("O=C1CCCc2c1ccn2CCCN1CCN(c2ncccn2)CC1")
0.77
>>> experimental_result("O=C1CCCc2c1ccn2CCN1CCN(c2cccc(C(F)(F)F)c2)CC1")
0.32
>>> experimental_result("O=C1CCCc2c1ccn2CCCN1CCN(c2cccc(C(F)(F)F)c2)CC1")
0.41
>>> experimental_result("O=C1CCCc2c1ccn2CCN1CCN(c2cccc(Cl)c2)CC1")
0.43

# next molecule below
Quickly give me recorded efflux ratio for COc1ccccc1N1CCN(CCn2ccc3c2CCCC3=O)CC1
0.6

* * *

# Tested on: mice
# assay: Conditioned avoidance responding (CAR, active avoidance)
# Format: in vivo
# reported conditions: SC to mice, 20 minutes before test session
measurement name: Conditioned Avoidance Responding, overall effect / effect on escape or avoidance

>>> experimental_result("O=C1CCCc2c1ccn2CCCN1CCN(c2cccc(Cl)c2)CC1")
"No effect"
>>> experimental_result("O=C1CCCc2c1ccn2CCCN1CCN(c2cccc(C(F)(F)F)c2)CC1")
"No effect"
>>> experimental_result("O=C1CCCc2c1ccn2CCCN1CCN(c2ncccn2)CC1")
"No effect"

* * *

Papp A→B: recorded values
# assay: Membrane permeability (Papp) across Caco-2 cell monolayers
# Type: in vitro ADME
# reported conditions: human; Caco-2 monolayer, apical to basolateral; read-out: Papp (cm/s × 10^6) AP-to-BL
Write the value in ×10⁻⁶ cm/s as a bare number.

>>> experimental_result("O=C1CCCc2c1ccn2CCCCN1CCN(c2cccc(C(F)(F)F)c2)CC1")
27.1
>>> experimental_result("COc1ccccc1N1CCN(CCCn2ccc3c2CCCC3=O)CC1")
32.1
>>> experimental_result("O=C1CCCc2c1ccn2CCN1CCN(c2cccc(Cl)c2)CC1")
20.4
>>> experimental_result("COc1ccccc1N1CCN(CCn2ccc3c2CCCC3=O)CC1")
26

Identify Papp A→B associated with the compound Cc1nc2n(c(=O)c1CCN1CCC(c3noc4cc(F)ccc34)CC1)CCCC2 [Risperidone, risperidone, reference compound]
21.5

Dear colleague, please send me the reported Papp A→B for O=C1CCCc2c1ccn2CCCN1CCN(c2cccc(Cl)c2)CC1 when you can.
18

Name the recorded Papp A→B of the item O=C1CCCc2c1ccn2CCCN1CCN(c2cccc(C(F)(F)F)c2)CC1 in your answer.
21.5

Determine its reported Papp A→B: CN1CCN(C2=Nc3cc(Cl)ccc3Nc3ccccc32)CC1 [Clozapine, clozapine, reference compound]
15.3

Please look at this compound and report its Papp A→B: O=C1CCCc2c1ccn2CCN1CCN(c2cccc(C(F)(F)F)c2)CC1
24

Input CC(C)NCC(O)COc1cccc2ccccc12 (centres unmarked) [Propranolol, reference compound] , output reported Papp A→B.
17.3

Tell me measured Papp A→B for O=C1CCCc2c1ccn2CCCN1CCN(c2ncccn2)CC1 please.
32.9

* * *

# assay: Membrane permeability (Papp) across Caco-2 cell monolayers
# Format: in vitro ADME
# reported conditions: human; Caco-2 monolayer, basolateral to apical; read-out: Papp (cm/s × 10^6) BL-to-AP
Readings of Papp B→A for the listed compounds
Number in ×10⁻⁶ cm/s, nothing else.

Note Papp B→A for the compound shown: Cc1nc2n(c(=O)c1CCN1CCC(c3noc4cc(F)ccc34)CC1)CCCC2 [Risperidone, risperidone, reference compound]
14

Give the reported Papp B→A for this compound. O=C1CCCc2c1ccn2CCCCN1CCN(c2cccc(C(F)(F)F)c2)CC1 [NEO-392]
15.7

Given O=C1CCCc2c1ccn2CCN1CCN(c2cccc(Cl)c2)CC1 [NEO-376] , respond with its Papp B→A.
9.4

Answer with reported Papp B→A of COc1ccccc1N1CCN(CCCn2ccc3c2CCCC3=O)CC1 [NEO-370]
20

Give me measured Papp B→A, please, for this compound: O=C1CCCc2c1ccn2CCCN1CCN(c2cccc(Cl)c2)CC1 [NEO-363]
13.1

Give the value of Papp B→A reported for the following: O=C1CCCc2c1ccn2CCCN1CCN(c2ncccn2)CC1 [NEO-381]
25.3

Annotate the compound COc1ccccc1N1CCN(CCn2ccc3c2CCCC3=O)CC1 [NEO-377] with its measured Papp B→A.
15.5

Give the reported value of Papp B→A for this record: O=C1CCCc2c1ccn2CCCN1CCN(c2cccc(C(F)(F)F)c2)CC1 [NEO-356]
8.8

Quote Papp B→A reported for CN1CCN(C2=Nc3cc(Cl)ccc3Nc3ccccc32)CC1 [Clozapine, clozapine, reference compound] please.
7.4

Report Papp B→A for O=C1CCCc2c1ccn2CCN1CCN(c2cccc(C(F)(F)F)c2)CC1 [NEO-359]
7.6

* * *

# System: Caco-2 cells
# assay: Membrane permeability (Papp) across Caco-2 cell monolayers
# Assay type: in vitro ADME
# reported conditions: Caco-2; Yes/No
measurement name: EFFLUX LIMITED

>>> experimental_result("O=C1CCCc2c1ccn2CCCN1CCN(c2ncccn2)CC1 [NEO-381]")
"No"
>>> experimental_result("Cc1nc2n(c(=O)c1CCN1CCC(c3noc4cc(F)ccc34)CC1)CCCC2 [Risperidone, risperidone, reference compound]")
"No"
>>> experimental_result("CN1CCN(C2=Nc3cc(Cl)ccc3Nc3ccccc32)CC1 [Clozapine, clozapine, reference compound]")
"No"
>>> experimental_result("O=C1CCCc2c1ccn2CCCN1CCN(c2cccc(Cl)c2)CC1 [NEO-363]")
"No"
>>> experimental_result("O=C1CCCc2c1ccn2CCCCN1CCN(c2cccc(C(F)(F)F)c2)CC1 [NEO-392]")
"No"
>>> experimental_result("O=C1CCCc2c1ccn2CCN1CCN(c2cccc(C(F)(F)F)c2)CC1 [NEO-359]")
"No"
>>> experimental_result("COc1ccccc1N1CCN(CCn2ccc3c2CCCC3=O)CC1 [NEO-377]")
"No"
>>> experimental_result("CC(C)NCC(O)COc1cccc2ccccc12 (centres unmarked) [Propranolol, reference compound]")
"No"
>>> experimental_result("O=C1CCCc2c1ccn2CCN1CCN(c2cccc(Cl)c2)CC1 [NEO-376]")
"No"
>>> experimental_result("O=C1CCCc2c1ccn2CCCN1CCN(c2cccc(C(F)(F)F)c2)CC1 [NEO-356]")
"No"

Read the next record carefully.
Indicate the recorded EFFLUX LIMITED value for this compound: COc1ccccc1N1CCN(CCCn2ccc3c2CCCC3=O)CC1 [NEO-370]
No
